# method: IVIVE: steady-state concentration (Css), generic HTTK model
# Parameters: species or system human
# run-parameters: fub=fup/(B:P); Fub set to 1 if needed
quantity-kind: Fub
Give bare numbers.

Known Fub results, listed for orientation:
O=S(=O)(O)C(F)(F)C(F)(F)C(F)(F)C(F)(F)C(F)(F)C(F)(F)C(F)(F)C(F)(F)F [Perfluorooctanesulfonate (PFOS-)] = 0.008545
O=C(Cl)C(F)(F)C(F)(F)C(F)(F)C(F)(F)C(F)(F)C(F)(F)C(F)(F)F = 0.0001224
C[N+](C)(C)CCCNS(=O)(=O)C(F)(F)C(F)(F)C(F)(F)C(F)(F)C(F)(F)C(F)(F)C(F)(F)C(F)(F)F.[I-] = 0.02291

// Fub lookup, compound = O=C(Cl)C(F)(F)C(F)(F)C(F)(F)C(F)(F)C(F)(F)C(F)(F)F [Perfluoroheptanoyl chloride (PFHpA-Cl)] , result: 0.002427

* * *

For each of the compounds below, state its Css (uM).
# method: IVIVE: steady-state concentration (Css), generic HTTK model
# Parameters: species or system human
# run-parameters: Assuming 1 mg/kg/day dose rate; BW 70 kg
Numbers only, in µM.

Known Css (uM) results, listed for orientation:
O=S(=O)(O)C(F)(F)C(F)(F)C(F)(F)C(F)(F)C(F)(F)C(F)(F)C(F)(F)F = 893.98
O=S(=O)([O-])C(F)(F)C(F)(F)C(F)(F)C(F)(F)F.[K+] = 174.92
O=C(O)C(F)(F)C(F)(F)C(F)(F)C(F)(F)C(F)(F)C(F)(F)C(F)(F)C(F)(F)F = 325.11
O=S(=O)([O-])C(F)(F)C(F)(F)C(F)(F)C(F)(F)C(F)(F)C(F)(F)F.[K+] = 603.44
O=S(=O)(O)C(F)(F)C(F)(F)C(F)(F)C(F)(F)C(F)(F)C(F)(F)F = 670.49
O=C(O)C(F)(F)C(F)(F)C(F)F = 7.18
O=C(O)CCC(F)(F)C(F)(F)C(F)(F)F = 19.25

// Css (uM) lookup, compound = "O=S(=O)([O-])C(F)(F)C(F)(F)C(F)(F)C(F)(F)C(F)(F)C(F)(F)C(F)(F)C(F)(F)F.[K+]" , result: 120.69

* * *

# method: IVIVE: steady-state concentration (Css), generic HTTK model
# Parameters: species or system human
# run-parameters: QL 1500000 uL/min
quantity-kind: CLhep

O=S(=O)(OCC(F)(F)F)C(F)(F)C(F)(F)C(F)(F)C(F)(F)F = 0.000 L/h
O=S(=O)([O-])C(F)(F)C(F)(F)C(F)(F)C(F)(F)F.[K+] = 0.000 L/h

Kindly give each listed record's CLhep.
1. O=S(=O)(O)CCC(F)(F)C(F)(F)C(F)(F)C(F)(F)C(F)(F)C(F)(F)F
2. O=C(O)C(F)(F)C(F)(F)C(F)(F)C(F)(F)C(F)(F)C(F)(F)C(F)(F)C(F)(F)C(F)(F)F
3. O=C(O)C(F)(F)OC(F)(F)C(F)(F)OC(F)(F)C(F)(F)OC(F)(F)F
4. O=C(O)CCC(F)(F)C(F)(F)C(F)(F)C(F)(F)C(F)(F)C(F)(F)F
5. O=C(O)C(F)(F)C(F)(F)C(F)(F)C(F)(F)C(F)(F)C(F)(F)C(F)F
6. O=C(O)C(F)(F)C(F)(F)OC(F)(F)F

Found:
1. 0.382 L/h
2. 0.000 L/h
3. 0.000 L/h
4. 0.222 L/h
5. 0.000 L/h
6. 0.000 L/h

* * *

For each of the compounds below, state its CLhep.
# method: IVIVE: steady-state concentration (Css), generic HTTK model
# Design: species or system human
# run-parameters: QL 1500000 uL/min
# do not omit the unit; it follows the number

Known CLhep results, listed for orientation:
O=C(O)C(F)(F)C(F)(F)C(F)(F)C(F)(F)C(F)(F)C(F)(F)C(F)(F)C(F)F = 0.000 L/h
O=C(O)C(F)(F)C(F)(F)C(F)(F)F = 0.000 L/h
O=C(O)C(F)(F)C(F)(F)C(F)(F)C(F)(F)C(F)(F)C(F)(F)C(F)(F)F = 0.000 L/h
O=C(O)C=CC(F)(C(F)(F)F)C(F)(F)F = 0.000 L/h
N.O=C(O)C(F)(F)C(F)(F)C(F)(F)C(F)(F)C(F)(F)C(F)(F)C(F)(F)F [Ammonium perfluorooctanoate (NH4PFOA)] = 0.028 L/h

// CLhep lookup, compound = O=S(=O)([O-])C(F)(F)C(F)(F)C(F)(F)C(F)(F)C(F)(F)C(F)(F)C(F)(F)C(F)(F)C(F)(F)C(F)(F)F.[Na+] [Sodium perfluorodecanesulfonate (NaPFDS)] , result: 0.000 L/h

* * *

# method: IVIVE: steady-state concentration (Css), generic HTTK model
# Set-up: species or system human
# run-parameters: fub=fup/(B:P); Fub set to 1 if needed
quantity-kind: Fub
Answers are plain numbers.

Known Fub results, listed for orientation:
O=C(O)C(F)(F)C(F)(F)C(F)(F)C(F)(F)C(F)(F)C(F)(F)C(F)(F)C(F)(F)F [Perfluorononanoic acid (PFNA)] = 0.002909
O=S(=O)(O)C(F)(F)C(F)(F)C(F)(F)C(F)(F)C(F)(F)C(F)(F)F [Perfluorohexanesulfonic acid (PFHxS)] = 0.001636
O=C(O)CCC(F)(F)C(F)(F)C(F)(F)C(F)(F)C(F)(F)C(F)(F)F [6:3 FTCA, 6:3 Fluorotelomer carboxylic acid] = 0.004182
O=C(O)C(F)(F)C(F)(F)C(F)(F)F [Perfluorobutanoic acid (PFBA)] = 0.1691
O=C(O)CCC(F)(C(F)(F)F)C(F)(F)F = 0.1738

Kindly give each listed record's Fub.
1. O=S(=O)([O-])C(F)(F)C(F)(F)C(F)(F)C(F)(F)C(F)(F)C(F)(F)F.[K+]
2. O=C(O)C(F)(F)C(F)(F)C(F)(F)C(F)(F)C(F)(F)C(F)(F)C(F)(F)C(F)(F)C(F)(F)C(F)F
3. O=C(O)C(F)(F)C(F)(F)C(F)(F)OC(F)(C(F)(F)F)C(F)(F)F
4. O=C(O)C(F)(F)C(F)(F)C(F)(F)C(F)(F)C(F)(F)C(F)(F)C(F)(F)C(F)(F)C(F)(F)C(F)(F)F [Perfluoroundecanoic acid (PFUnDA)]

Found:
0.001818
0.002727
0.003818
0.02109

Kindly give each listed record's Fub.
1. O=S(=O)(O)CCC(F)(F)C(F)(F)C(F)(F)C(F)(F)C(F)(F)C(F)(F)C(F)(F)C(F)(F)F
2. O=S(=O)(O)C(F)(F)C(F)(F)C(F)(F)C(F)(F)F [Perfluorobutanesulfonic acid (PFBS)]
3. O=C(O)C(F)(F)C(F)(F)F [Perfluoropropanoic acid (PFPrA)]
4. O=C(O)C(F)(F)C(F)(F)OC(F)(F)F
5. O=S(=O)(OCC(F)(F)F)C(F)(F)C(F)(F)C(F)(F)C(F)(F)F

Found:
1. 0.072
2. 0.02327
3. 0.5651
4. 0.1389
5. 0.006742

Kindly give each listed record's Fub.
1. O=C(O)C(F)(F)C(F)(F)C(F)(F)C(F)(F)C(F)(F)C(F)(F)C(F)(F)F [Perfluorooctanoic acid (PFOA)]
2. O=C(O)C(F)(F)OC(F)(F)C(F)(F)OC(F)(F)C(F)(F)C(F)(F)C(F)(F)F [Perfluoro-3,6-dioxadecanoic acid]

Found:
1. 0.001818
2. 0.001273

* * *

# method: IVIVE: steady-state concentration (Css), generic HTTK model
# Design: species or system human
# run-parameters: Assuming 1 mg/kg/day dose rate; BW 70 kg
quantity-kind: Css (mg/L)
Numbers only, in mg/L.

Known Css (mg/L) results, listed for orientation:
O=S(=O)(O)CCC(F)(F)C(F)(F)C(F)(F)C(F)(F)F = 6.27
O=S(=O)(O)C(F)(F)C(F)(F)C(F)(F)C(F)(F)C(F)(F)C(F)(F)F = 268.16
O=C(O)C(F)(F)C(F)(F)C(F)(F)C(F)(F)C(F)(F)F = 35.49
O=C(O)CCC(F)(F)C(F)(F)C(F)(F)C(F)(F)C(F)(F)C(F)(F)F = 11.76
O=C(O)CCC(F)(F)C(F)(F)C(F)(F)F = 4.66
O=S(=O)(O)C(F)(F)C(F)(F)C(F)(F)C(F)(F)C(F)(F)C(F)(F)C(F)(F)C(F)(F)F [Perfluorooctanesulfonate (PFOS-)] = 51.35
O=S(=O)([O-])C(F)(F)C(F)(F)C(F)(F)C(F)(F)F.[K+] = 52.47

// Css (mg/L) lookup, compound = "O=S(=O)(O)C(F)(F)C(F)(F)C(F)(F)C(F)(F)F" , result: 2.25

Sourced from paper PMC11435625
